Kindly supply the reported TGI values for the records listed here.
# Test system: TK-10 renal
# assay-name: NCI tumour cell line growth inhibition, 48 h

Known TGI results, listed for orientation:
{"columns": ["molecule", "metric", "meas-value"],
 "data": [
  ["c1ccc2c(c1)CCc1c-2n[nH]c1-c1[nH]nc2c1CCc1ccccc1-2", "TGI", "> 100 µM"],
  ["CCCn1c(=O)c(N2CCN(c3ccccc3)CC2)nc2sc3ccccc3c21", "TGI", "> 100 µM"],
  ["CCN(CCN(CC)C(=O)Nc1ccccc1)C(=O)Nc1ccccc1", "TGI", "> 100 µM"],
  ["CC1C=CC(OC(=O)C(C)(O)CCC(O)(C(=O)OC2CC(O)C(C(C)C)CC2(C)O)C(C)C)(C(C)C)CC1 (stereo not given)", "TGI", "1.5 µM"],
  ["O=c1c2cc(F)ccc2sc2c(NCCCNCCO)nc3ccccc3c12", "TGI", "3.53 µM"]
]}

# return TGI for each item in the list
1. CN(C)CCc1c2c(nc3ccccc13)C(=O)c1cccnc1C2=O
2. COC(=O)C1CCC(=O)N1C(c1ccc2c(c1)OCO2)c1cc(OC)c(OC)c(OC)c1 (stereo not given)

["2.94 µM", "> 100 µM"]

* * *

Field: TGI. Provide a value for each of the compounds that follow.
# Test system: RPMI-8226 leukemia
# assay-name: NCI tumour cell line growth inhibition, 48 h

{"columns": ["smiles-representation", "TGI"],
 "data": [
  ["O=C1C(OCCOc2ccccc2)=C(OCCOc2ccccc2)C(=O)c2ccccc21", "> 100 µM"],
  ["Cc1cnc2c(c1C)C(=O)c1ccccc1C2=O", "> 100 µM"]
]}

# input for lookup
Just so you know, measured TGI for `CCCc1[nH]c2ccccc2c1-c1c(CCC)[nH]c2ccccc12` came out at > 100 µM

* * *

# Tested on: UACC-62 melanoma
# assay-name: NCI tumour cell line growth inhibition, 48 h
Assign TGI to each entry below.

For orientation, consider the following solved cases.
{"columns": ["compound", "assay-target", "meas-value"],
 "data": [
  ["c1cc(N2CCN(c3ccc(C4=NCCCN4)cc3)CC2)ccc1C1=NCCCN1", "UACC-62 melanoma", "> 35.3 µM"],
  ["COc1ccc(-c2cc(=O)c3c(O)cccc3o2)c(OC)c1OC", "UACC-62 melanoma", "> 100 µM"]
]}

Please state, for each entry, its recorded TGI.
1. Cc1cc2c(c(C(N)=O)c1C)-c1cc(Cl)cc(Cl)c1C2=O
2. O=c1[nH]nc(-c2ccccc2)n1O

> 100 µM
> 100 µM

Provide the reported TGI of each entry below, same order.
1. N#CCCNc1nonc1-c1nc2ccccc2n1CC(=O)c1ccc(NC(=O)[C@@H](N)CCCCN)cc1
2. CO/N=C1/c2sccc2[C@H](NC(=O)C(Cc2ccccc2)NC(=O)OC(C)(C)C)[C@@H]1O (stereo partly specified)

1. > 100 µM
2. > 100 µM

* * *

Consider the following compounds; for each one, report its TGI.
# System: EKVX NSCLC
# assay-name: NCI tumour cell line growth inhibition, 48 h

Example entries begin here.
{"columns": ["compound", "assay-target", "TGI"],
 "data": [
  ["c1cc(-c2cn3c(n2)SCC3)ccn1", "EKVX NSCLC", "> 100 µM"],
  ["Cn1c(=O)n2n(c1=O)C(C)(C13CC4CC(CC(C4)C1)C3)C13CC4CC(CC1C4)CC23 (stereo not given)", "EKVX NSCLC", "> 100 µM"],
  ["COc1cc(O)c2c(=O)c(OC)c(-c3ccc(OC)c(OC)c3)oc2c1", "EKVX NSCLC", "> 100 µM"],
  ["NC1=NC(=O)C(CC(=O)Nc2ccc(Cl)cc2Cl)S1 (stereo not given)", "EKVX NSCLC", "> 100 µM"],
  ["Nc1n[nH]c2ccc([C@@H]3Nc4cc5c(cc4[C@H]4C6CCC(C6)[C@@H]34)C(=O)NC5)cc12 (stereo not given in full)", "EKVX NSCLC", "> 100 µM"]
]}

Give measured TGI for every item shown.
1. CCOC(=O)/C(I)=C/c1cc(OC)c(OC)c(OC)c1
2. CCOC(=O)Cn1nnc2ccc(Nc3nc4ccccc4nc3-c3ccccc3)cc21
3. CCCc1[nH]c2ccccc2c1-c1c(CCC)[nH]c2ccccc12
4. COc1ccc(C2=NOC(N)(c3ccc(OC)cc3)C2)cc1 (stereo not given)

1. 42.9 µM
2. > 100 µM
3. 30.9 µM
4. > 100 µM

Field TGI (EKVX NSCLC), entry `C[CH2][Hg][S]c1ccccc1C(=O)O` : 5.39 µM

Cited source: PubChem BioAssay (NCI)
